These data points were gathered from ChEMBL document CHEMBL1148604.

Test system: Escherichia coli
Assay: Inhibitory activity against Escherichia coli ANSI
Format: functional
observation-type: MIC

Qu. Output MIC of CC(C)=CCC1(C)SC(O)=C(C)C1=O (centres undefined)
Ans. > 1000 µM

Qu. Output MIC of C/C=C/CC1(C)SC(O)=C(C)C1=O (centres undefined)
Ans. > 1000 µM

Qu. Output MIC of CCC(C)C1(C)SC(O)=C(C)C1=O (centres undefined)
Ans. > 1000 µM

Qu. Output MIC of CCCCCCCCCCC1(C)SC(O)=C(C)C1=O (centres undefined)
Ans. 100 µM

Qu. Output MIC of CC1=C(O)SC(C)(C(C)c2ccccc2)C1=O (centres undefined)
Ans. > 1000 µM

Qu. Output MIC of CC1=C(O)C(C)(CC2CC2)SC1=O (centres undefined)
Ans. > 1000 µM

Qu. Output MIC of CC/C=C/CC1(C)SC(O)=C(C)C1=O (centres undefined)
Ans. > 1000 µM

Qu. Output MIC of C=CCCCC1(C)SC(=O)C(C)=C1O (centres undefined)
Ans. > 1000 µM

Qu. Output MIC of CC1=C(O)C(C)(CC2CCC2)SC1=O (centres undefined)
Ans. > 1000 µM

Qu. Output MIC of COc1ccc(CC2(C)SC(O)=C(C)C2=O)cc1 (centres undefined)
Ans. > 1000 µM

Qu. Output MIC of CCC(CC)CC1(C)SC(O)=C(C)C1=O (centres undefined)
Ans. > 1000 µM

Qu. Output MIC of COc1cc(CC2(C)SC(O)=C(C)C2=O)cc(OC)c1 (centres undefined)
Ans. > 1000 µM

Qu. Output MIC of CC1=C(O)C(C)(Cc2ccc(F)cc2)SC1=O (centres undefined)
Ans. > 1000 µM

Qu. Output MIC of CC1=C(O)C(C)(C2CCCC2)SC1=O (centres undefined)
Ans. > 1000 µM

Qu. Output MIC of COc1ccccc1CC1(C)SC(O)=C(C)C1=O (centres undefined)
Ans. > 1000 µM

Qu. Output MIC of COc1cccc(CC2(C)SC(O)=C(C)C2=O)c1 (centres undefined)
Ans. > 1000 µM

Qu. Output MIC of CC1=C(O)SC(C)(CC(C)C)C1=O (centres undefined)
Ans. > 1000 µM

Qu. Output MIC of C=CC(C)CC1(C)SC(O)=C(C)C1=O (centres undefined)
Ans. > 1000 µM

Qu. Output MIC of CC1=C(O)C(C)(Cc2ccccc2C)SC1=O (centres undefined)
Ans. > 1000 µM

Qu. Output MIC of C=CCCC1(C)SC(=O)C(C)=C1O (centres undefined)
Ans. > 1000 µM

Qu. Output MIC of CCCCCCCCC1(C)SC(O)=C(C)C1=O (centres undefined)
Ans. 200 µM

Qu. Output MIC of C=CCC1(C)SC(=O)C(C)=C1O (centres undefined)
Ans. > 1000 µM

Qu. Output MIC of CC(C)=CCC/C(C)=C/CC1(C)SC(O)=C(C)C1=O (centres undefined)
Ans. > 1000 µM

Qu. Output MIC of CC1=C(O)C(C)(Cc2cccc(C)c2)SC1=O (centres undefined)
Ans. > 1000 µM

Qu. Output MIC of CCCCCCCCCCC(C)C1(C)SC(O)=C(C)C1=O (centres undefined)
Ans. 35 µM

Qu. Output MIC of CC1=C(O)C(C)(Cc2ccc(Cl)c(Cl)c2)SC1=O (centres undefined)
Ans. > 1000 µM

Qu. Output MIC of C=CC(C)C[C@@]1(C)SC(O)=C(C)C1=O (some centres undefined)
Ans. > 200 µM

Qu. Output MIC of CCCCCCC1(C)SC(O)=C(C)C1=O (centres undefined)
Ans. > 1000 µM

Qu. Output MIC of CC1=C(O)C(C)(Cc2ccc(C(F)(F)F)cc2)SC1=O (centres undefined)
Ans. > 1000 µM

Qu. Output MIC of CC1=C(O)C(C)(Cc2ccc([N+](=O)[O-])cc2)SC1=O (centres undefined)
Ans. > 1000 µM

Qu. Output MIC of C=CCCCCC1(C)SC(=O)C(C)=C1O (centres undefined)
Ans. > 1000 µM

Qu. Output MIC of CCCCCC(C)C1(C)SC(O)=C(C)C1=O (centres undefined)
Ans. 160 µM

Qu. Output MIC of CC1=C(O)C(C)(Cc2c(C)cc(C)cc2C)SC1=O (centres undefined)
Ans. > 1000 µM

Qu. Output MIC of C=C/C(C)=C/C1(C)SC(O)=C(C)C1=O (racemic)
Ans. 12 µM

Qu. Output MIC of CC1=C(O)C(C)(Cc2ccc(C(C)(C)C)cc2)SC1=O (centres undefined)
Ans. > 1000 µM

Qu. Output MIC of CCCCC(CC)CC1(C)SC(O)=C(C)C1=O (centres undefined)
Ans. > 1000 µM

Qu. Output MIC of CC1=C(O)C(C)(CC2CCCCC2)SC1=O (centres undefined)
Ans. > 1000 µM

Qu. Output MIC of C=CCCCCCCC1(C)SC(=O)C(C)=C1O (centres undefined)
Ans. 200 µM

Qu. Output MIC of CCCCCCCCCCCCC1(C)SC(O)=C(C)C1=O (centres undefined)
Ans. 25 µM

Qu. Output MIC of CC1=C(O)C(C)(Cc2ccc(C)cc2)SC1=O (centres undefined)
Ans. > 1000 µM

Qu. Output MIC of CC1=C(O)C(C)(Cc2ccccc2)SC1=O (centres undefined)
Ans. > 1000 µM

Qu. Output MIC of CC1=C(O)C(C)(CCc2ccccc2)SC1=O (centres undefined)
Ans. > 1000 µM

Qu. Output MIC of CC1=C(O)C(C)(Cc2cccc(C(F)(F)F)c2)SC1=O (centres undefined)
Ans. > 1000 µM

Qu. Output MIC of CC1=C(O)C(C)(Cc2ccc(Cl)cc2Cl)SC1=O (centres undefined)
Ans. 150 µM

Qu. Output MIC of C=C(C)CC1(C)SC(O)=C(C)C1=O (centres undefined)
Ans. > 1000 µM

Qu. Output MIC of CC1=C(O)C(C)(CCCc2ccccc2)SC1=O (centres undefined)
Ans. > 1000 µM

Qu. Output MIC of CC1=C(O)C(C)(C/C=C/c2ccccc2)SC1=O (centres undefined)
Ans. > 1000 µM

Qu. Output MIC of C=C/C=C/C1(C)SC(=O)C(C)=C1O (centres undefined)
Ans. 200 µM

Qu. Output MIC of CCCCCC1(C)SC(O)=C(C)C1=O (centres undefined)
Ans. > 1000 µM
